Assayed Target: recombinant human PAPPA (pregnancy associated plasma protein-A) (human, UniProt Q13219 82-1627)
Sequence (Q13219 82-1627 limits assumed): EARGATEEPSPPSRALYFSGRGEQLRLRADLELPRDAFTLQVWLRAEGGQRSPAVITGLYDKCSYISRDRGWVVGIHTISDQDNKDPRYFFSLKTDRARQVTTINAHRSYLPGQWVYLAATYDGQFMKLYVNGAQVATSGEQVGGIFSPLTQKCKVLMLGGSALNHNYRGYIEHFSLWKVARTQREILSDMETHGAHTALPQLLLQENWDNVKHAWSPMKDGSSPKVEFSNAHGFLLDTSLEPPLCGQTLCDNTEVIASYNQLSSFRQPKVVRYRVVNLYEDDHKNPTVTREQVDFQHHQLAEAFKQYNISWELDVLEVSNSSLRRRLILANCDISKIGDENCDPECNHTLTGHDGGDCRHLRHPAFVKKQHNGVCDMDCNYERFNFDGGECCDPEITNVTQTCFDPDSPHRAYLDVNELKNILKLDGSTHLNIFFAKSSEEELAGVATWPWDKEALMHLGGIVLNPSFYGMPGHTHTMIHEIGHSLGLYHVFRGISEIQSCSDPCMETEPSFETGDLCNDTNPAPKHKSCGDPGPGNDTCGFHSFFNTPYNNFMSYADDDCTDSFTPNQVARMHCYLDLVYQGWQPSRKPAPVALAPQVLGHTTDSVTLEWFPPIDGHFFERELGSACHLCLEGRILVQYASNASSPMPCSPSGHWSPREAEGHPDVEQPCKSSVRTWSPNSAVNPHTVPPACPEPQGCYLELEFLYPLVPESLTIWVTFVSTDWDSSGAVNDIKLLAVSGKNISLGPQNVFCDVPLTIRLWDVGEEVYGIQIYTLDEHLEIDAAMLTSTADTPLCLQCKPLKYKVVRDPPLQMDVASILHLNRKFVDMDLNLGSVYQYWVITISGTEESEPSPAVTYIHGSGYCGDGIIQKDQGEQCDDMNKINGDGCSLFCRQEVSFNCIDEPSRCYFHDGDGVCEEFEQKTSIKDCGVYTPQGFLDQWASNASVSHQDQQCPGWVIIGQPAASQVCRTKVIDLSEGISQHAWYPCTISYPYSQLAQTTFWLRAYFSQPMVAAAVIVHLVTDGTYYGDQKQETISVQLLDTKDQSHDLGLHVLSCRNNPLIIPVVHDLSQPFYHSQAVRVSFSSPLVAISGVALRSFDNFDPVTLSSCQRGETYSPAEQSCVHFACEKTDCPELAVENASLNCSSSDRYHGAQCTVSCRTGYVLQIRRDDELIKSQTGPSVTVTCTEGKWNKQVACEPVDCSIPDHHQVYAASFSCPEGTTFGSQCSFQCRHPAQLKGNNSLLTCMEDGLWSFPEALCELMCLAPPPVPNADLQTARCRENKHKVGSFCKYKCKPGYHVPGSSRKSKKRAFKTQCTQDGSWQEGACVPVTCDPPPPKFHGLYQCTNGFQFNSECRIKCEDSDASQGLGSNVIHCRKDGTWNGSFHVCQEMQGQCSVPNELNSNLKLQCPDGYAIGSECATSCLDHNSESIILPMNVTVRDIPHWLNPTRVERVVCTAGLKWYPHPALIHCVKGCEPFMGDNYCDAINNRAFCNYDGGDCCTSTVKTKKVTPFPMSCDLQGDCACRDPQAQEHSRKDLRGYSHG
Experiment Description: cell-based or functional assay
Endpoint Name: PAPP-A cleavage of IGFBP-5 Mean pIC50 (pIC50)

[[record]]
binder = "TPP-12743 (antibody, human IgG1, kappa, V domains shown) VH: QVQLVQSGAEVKKPGASVKVSCKASGYTFTSYAMHWVRQAPGQRLEWMGWMNAGTGATKSSQKFQGRVTITRDTSASTAYMELSSLRSEDTAVYYCARGPSLETPTTFGMDVWGQGTTVTVSS VL: DIQMTQSPSSVSASVGDRVTITCRASQGISRWLAWYQQKPGKAPKLLIYAASSLQSGVPSRFSGSGSGTDFTLTISSLQPEDFATYYCQQENAYPFTFGGGTKVEIKR"
measured_value = 10.4

